EXPERIMENT DESCRIPTION: In vivo pattern recognition of TEF: UPLC–MS metabolic profiling of blood after oral administration
Design: species or system rats
EXPERIMENTAL SETUP: blood 6 h after oral TEF to rats; UPLC–MS abundance of mass
Procedure: For in vivo pattern recognition of TEF, it was orally administered to rats. After its oral administration, blood samples were collected at different time intervals. […] Samples were analyzed by ultra-performance liquid chromatography–mass spectrometry (UPLC–MS) analysis. […] The accurate mass and composition for the precursor ions and the fragment ions were calculated by using MassLynx v 4.1 software incorporated with the instrument. […]
MEASURED ENDPOINT: Metabolites Pattern in TEF and Blood (Abundance)

Quote Metabolites Pattern in TEF and Blood (Abundance) reported for CC(=O)O[C@@H]1C(=O)C2=C(C(=O)C[C@H]3C(C)(C)[C@@H](O)CC[C@]23C)[C@]2(C)C(=O)C[C@H]([C@H](C)CC(=O)CC(C)C(=O)O)[C@@]12C (stereo partly drawn) please.
32,456

Quote Metabolites Pattern in TEF and Blood (Abundance) reported for `CC(C)CCCCCCCCCCCC(=O)O` please.
25,473

Quote Metabolites Pattern in TEF and Blood (Abundance) reported for `CCCCC/C=C\C/C=C\CCCCCCCC(=O)O` please.
21,543

Quote Metabolites Pattern in TEF and Blood (Abundance) reported for CC(CC(=O)C[C@@H](C)[C@H]1CC(=O)[C@@]2(C)C3=C(C(=O)C[C@]12C)[C@@]1(C)CCC(=O)C(C)(C)[C@@H]1C[C@@H]3O)C(=O)O (stereo partly drawn) please.
27,689

Quote Metabolites Pattern in TEF and Blood (Abundance) reported for OC[C@H]1OC(c2c(O)cc3c(c2O)C[C@@H](O)[C@@H](c2ccc(O)c(O)c2)O3)[C@H](O)[C@@H](O)[C@@H]1O (stereo partly drawn) [Epicatechin-6-glucoside] please.
26,578

Quote Metabolites Pattern in TEF and Blood (Abundance) reported for `C[C@H](CC(=O)C[C@@H](C)[C@H]1C[C@H](O)[C@@]2(C)C3=C(C(=O)C[C@]12C)[C@@]1(C)CCC(=O)C(C)(C)[C@@H]1C[C@@H]3O)C(=O)O` please.
29,143

====

EXPERIMENT DESCRIPTION: In vivo pattern recognition of TEF: UPLC–MS metabolic profiling of blood after oral administration
Design: species or system rats
EXPERIMENTAL SETUP: blood 1 h after oral TEF to rats; UPLC–MS abundance of mass
MEASURED ENDPOINT: Metabolites Pattern in TEF and Blood (Abundance)

Quote Metabolites Pattern in TEF and Blood (Abundance) reported for OC[C@H]1OC(c2c(O)cc3c(c2O)C[C@@H](O)[C@@H](c2ccc(O)c(O)c2)O3)[C@H](O)[C@@H](O)[C@@H]1O (stereo partly shown) [Epicatechin-6-glucoside] please.
36,783

Quote Metabolites Pattern in TEF and Blood (Abundance) reported for `C[C@H](CC(=O)C[C@@H](C)[C@H]1C[C@H](O)[C@@]2(C)C3=C(C(=O)C[C@]12C)[C@@]1(C)CCC(=O)C(C)(C)[C@@H]1C[C@@H]3O)C(=O)O` please.
45,647

Quote Metabolites Pattern in TEF and Blood (Abundance) reported for CC(CC(=O)C[C@@H](C)[C@H]1CC(=O)[C@@]2(C)C3=C(C(=O)C[C@]12C)[C@@]1(C)CCC(=O)C(C)(C)[C@@H]1C[C@@H]3O)C(=O)O (stereo partly shown) please.
36,786

Quote Metabolites Pattern in TEF and Blood (Abundance) reported for CC(=O)O[C@@H]1C(=O)C2=C(C(=O)C[C@H]3C(C)(C)[C@@H](O)CC[C@]23C)[C@]2(C)C(=O)C[C@H]([C@H](C)CC(=O)CC(C)C(=O)O)[C@@]12C (stereo partly shown) please.
45,675
